# measured target: Glycylpeptide N-tetradecanoyltransferase 1 (Homo sapiens, UniProt P30419)
# Sequence (P30419 whole entry): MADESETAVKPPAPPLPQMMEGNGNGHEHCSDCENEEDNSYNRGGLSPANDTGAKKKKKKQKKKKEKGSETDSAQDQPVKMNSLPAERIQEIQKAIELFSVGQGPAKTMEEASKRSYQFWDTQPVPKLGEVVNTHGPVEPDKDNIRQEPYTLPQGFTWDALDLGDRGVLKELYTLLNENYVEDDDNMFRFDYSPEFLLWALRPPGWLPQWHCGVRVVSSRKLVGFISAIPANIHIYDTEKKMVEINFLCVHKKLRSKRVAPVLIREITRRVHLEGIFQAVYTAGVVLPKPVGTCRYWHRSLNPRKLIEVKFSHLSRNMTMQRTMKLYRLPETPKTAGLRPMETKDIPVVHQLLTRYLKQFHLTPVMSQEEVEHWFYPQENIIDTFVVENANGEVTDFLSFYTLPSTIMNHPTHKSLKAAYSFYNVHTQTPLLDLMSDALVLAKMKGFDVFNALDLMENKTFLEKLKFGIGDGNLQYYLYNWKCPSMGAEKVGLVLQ
# protocol summary: Inhibition of human N-myristoyltransferase assessed as reduction in CoASH production by fluorogenic detection based assay
pIC50: −log10 of the molar value.
assay readout: pIC50

Lookup: Fill in: pIC50 of Cc1nn(C)c(C)c1CCOc1c(-c2ccc3c(c2)c(CN(C)C)nn3C)ccc(F)c1F is ___
Found: > 9.00

====

# measured target: Beta-2 adrenergic receptor (Homo sapiens, UniProt P07550)
# Sequence (P07550 whole entry): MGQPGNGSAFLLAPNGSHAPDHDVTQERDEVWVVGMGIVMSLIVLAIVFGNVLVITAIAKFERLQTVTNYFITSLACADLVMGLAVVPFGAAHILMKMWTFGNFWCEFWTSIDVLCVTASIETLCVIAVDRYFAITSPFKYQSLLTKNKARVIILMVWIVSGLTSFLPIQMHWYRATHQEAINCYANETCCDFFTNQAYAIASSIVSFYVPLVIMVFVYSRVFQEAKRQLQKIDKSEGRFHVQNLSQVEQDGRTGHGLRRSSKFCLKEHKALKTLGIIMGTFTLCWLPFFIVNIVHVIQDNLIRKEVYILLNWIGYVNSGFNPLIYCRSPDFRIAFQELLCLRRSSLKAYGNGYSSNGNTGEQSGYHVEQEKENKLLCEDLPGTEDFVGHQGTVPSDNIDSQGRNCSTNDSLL
assay readout: IC50 (µM)
Give bare numbers, in µM.

Lookup: What does the record list as IC50 for NCc1ccc(-c2ncccn2)cc1 ?
Found: 10

====

# measured target: CREB-binding protein (Homo sapiens, UniProt Q92793)
# Sequence (Q92793 whole entry): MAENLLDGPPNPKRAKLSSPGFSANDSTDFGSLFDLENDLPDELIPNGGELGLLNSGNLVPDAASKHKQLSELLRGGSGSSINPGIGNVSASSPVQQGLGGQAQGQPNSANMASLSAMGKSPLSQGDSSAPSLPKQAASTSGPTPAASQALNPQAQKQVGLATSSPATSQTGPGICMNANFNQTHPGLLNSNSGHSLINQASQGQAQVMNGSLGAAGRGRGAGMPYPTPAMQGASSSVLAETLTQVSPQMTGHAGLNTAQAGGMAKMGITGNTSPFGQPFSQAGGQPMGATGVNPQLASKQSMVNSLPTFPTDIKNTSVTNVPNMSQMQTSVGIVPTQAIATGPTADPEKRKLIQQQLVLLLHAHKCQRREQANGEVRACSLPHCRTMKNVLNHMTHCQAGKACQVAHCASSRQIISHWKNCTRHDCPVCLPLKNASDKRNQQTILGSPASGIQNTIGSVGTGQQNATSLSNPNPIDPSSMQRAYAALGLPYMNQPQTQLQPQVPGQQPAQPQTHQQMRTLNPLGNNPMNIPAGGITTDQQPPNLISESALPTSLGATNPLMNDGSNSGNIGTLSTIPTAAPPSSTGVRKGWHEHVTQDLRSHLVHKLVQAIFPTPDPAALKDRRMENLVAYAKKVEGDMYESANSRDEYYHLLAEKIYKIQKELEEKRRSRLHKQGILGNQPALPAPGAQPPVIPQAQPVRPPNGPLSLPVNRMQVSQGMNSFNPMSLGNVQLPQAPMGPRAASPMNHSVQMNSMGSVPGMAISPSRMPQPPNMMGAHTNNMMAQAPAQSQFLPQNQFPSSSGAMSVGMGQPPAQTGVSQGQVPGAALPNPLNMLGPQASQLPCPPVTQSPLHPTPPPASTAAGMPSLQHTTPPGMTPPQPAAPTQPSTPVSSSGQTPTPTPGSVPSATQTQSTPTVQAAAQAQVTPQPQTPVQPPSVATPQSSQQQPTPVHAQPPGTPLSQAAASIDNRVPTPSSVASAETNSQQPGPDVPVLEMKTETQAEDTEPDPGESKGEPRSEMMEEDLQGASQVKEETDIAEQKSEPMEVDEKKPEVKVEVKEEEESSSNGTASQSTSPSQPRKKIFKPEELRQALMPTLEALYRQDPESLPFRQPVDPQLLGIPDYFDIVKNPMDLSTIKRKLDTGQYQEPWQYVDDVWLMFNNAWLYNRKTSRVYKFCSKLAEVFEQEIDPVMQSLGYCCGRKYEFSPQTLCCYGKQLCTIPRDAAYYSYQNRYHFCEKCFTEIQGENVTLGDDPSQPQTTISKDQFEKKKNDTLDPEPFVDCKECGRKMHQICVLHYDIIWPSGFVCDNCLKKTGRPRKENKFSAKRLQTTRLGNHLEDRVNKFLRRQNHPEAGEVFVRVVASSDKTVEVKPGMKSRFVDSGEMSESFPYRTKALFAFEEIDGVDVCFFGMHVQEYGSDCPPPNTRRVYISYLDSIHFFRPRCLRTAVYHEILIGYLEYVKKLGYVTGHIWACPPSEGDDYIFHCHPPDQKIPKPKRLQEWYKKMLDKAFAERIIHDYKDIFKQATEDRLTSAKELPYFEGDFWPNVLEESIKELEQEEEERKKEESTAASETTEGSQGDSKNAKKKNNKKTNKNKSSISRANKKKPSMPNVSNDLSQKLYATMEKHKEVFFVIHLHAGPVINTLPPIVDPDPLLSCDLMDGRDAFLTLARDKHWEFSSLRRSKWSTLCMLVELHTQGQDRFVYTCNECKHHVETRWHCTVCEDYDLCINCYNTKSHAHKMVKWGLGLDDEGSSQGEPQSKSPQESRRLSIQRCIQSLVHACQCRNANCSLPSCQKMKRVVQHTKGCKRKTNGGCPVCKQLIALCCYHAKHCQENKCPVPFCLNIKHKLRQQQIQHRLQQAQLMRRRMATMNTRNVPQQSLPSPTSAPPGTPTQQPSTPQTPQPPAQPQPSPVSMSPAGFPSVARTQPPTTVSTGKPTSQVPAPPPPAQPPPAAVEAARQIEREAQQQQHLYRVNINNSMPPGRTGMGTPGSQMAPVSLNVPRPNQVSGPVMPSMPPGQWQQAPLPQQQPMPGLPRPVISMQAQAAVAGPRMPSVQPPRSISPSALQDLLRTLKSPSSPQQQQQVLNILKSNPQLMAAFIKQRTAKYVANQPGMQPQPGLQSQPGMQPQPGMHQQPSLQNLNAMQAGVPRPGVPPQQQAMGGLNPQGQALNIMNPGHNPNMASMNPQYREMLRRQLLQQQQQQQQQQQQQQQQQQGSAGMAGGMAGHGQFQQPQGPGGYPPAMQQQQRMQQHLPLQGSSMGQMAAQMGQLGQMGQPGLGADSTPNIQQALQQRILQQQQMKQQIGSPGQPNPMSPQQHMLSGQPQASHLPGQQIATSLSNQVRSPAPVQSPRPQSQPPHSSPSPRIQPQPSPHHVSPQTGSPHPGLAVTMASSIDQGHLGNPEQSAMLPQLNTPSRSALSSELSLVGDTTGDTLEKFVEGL
assay readout: Kd

Lookup: Requested read-out: Kd. Entry: CCOc1ccc(C(C)=O)cc1N
Found: 53 µM

====

# measured target: GTPase HRas (Homo sapiens, UniProt P01112, G12V)
# Sequence (P01112 whole entry G12V, the tested form may be a part): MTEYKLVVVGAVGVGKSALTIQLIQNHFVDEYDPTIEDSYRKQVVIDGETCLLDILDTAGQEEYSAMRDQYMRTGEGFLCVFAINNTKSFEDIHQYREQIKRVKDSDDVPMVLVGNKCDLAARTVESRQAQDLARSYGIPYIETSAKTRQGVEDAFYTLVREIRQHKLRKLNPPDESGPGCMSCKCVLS
# protocol summary: Inhibition GST-tagged recombinant HRAS G12V mutant (1 to 166 amino acids) (unknown origin) expressed in Escherichia coli C41(DE3) by SPR assay
assay readout: Kd (nM)
One number for each entry, in nM.

Lookup: What measured Kd goes with COc1nc(-c2cccc3c2OCCO3)ccc1Nc1ccc(CN(C)C)cc1 ?
Found: 51
